target or test system: rhIL-6-His (recombinant human IL-6, Val30 to Met212, C-terminal 6 His) (human, UniProt P05231 30-212)
Sequence (P05231 other isoform, or with tags, fused parts or gaps limits assumed): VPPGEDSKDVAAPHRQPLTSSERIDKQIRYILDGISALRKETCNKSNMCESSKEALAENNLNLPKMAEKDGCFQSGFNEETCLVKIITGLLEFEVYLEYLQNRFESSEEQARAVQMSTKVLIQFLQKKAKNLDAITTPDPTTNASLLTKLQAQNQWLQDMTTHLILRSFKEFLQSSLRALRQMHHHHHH
assay info: BLI, ForteBio Blitz
observed property: kon (M⁻¹ s⁻¹)
Answer with a number only, understood to be in M⁻¹ s⁻¹.

>  <binder>
HZ-0408c (antibody, human IgG1, kappa, V domains shown, Humanized from murine 140-4; IgG1 type antibody from 293F cells; also called L2/H3) VH: QVTLKESGPVLVKPTETLTLTCTVSGFSLSTSGMGVGWIRQPPGKALEWLAHIWWDDDKRYNSALKSRLTISKDTSKSQVVLTMTNMDPVDTATYYCARIGGLYVDYLMDYWGQGTLVTVSS VL: EIVLTQSPATLSLSPGERATLSCRASQSISDYLHWYQQKPGQAPRLLIYYASQSISGIPARFSGSGSGTDFTLTISSLEPEDFAVYYCQNGHSFPWTFGQGTKVEIKR

>  <kon, M⁻¹ s⁻¹>
74300

$$$$

Below: the item to evaluate.
[ask] Please give the measured kon for this binder: HZ-0408b (antibody, human IgG1, kappa, V domains shown, Humanized from murine 140-4; IgG1 type antibody from 293F cells; also called L1/H3) VH: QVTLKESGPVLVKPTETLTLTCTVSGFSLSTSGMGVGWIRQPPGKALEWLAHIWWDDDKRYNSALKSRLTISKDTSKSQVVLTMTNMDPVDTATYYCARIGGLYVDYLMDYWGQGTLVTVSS VL: EIVLTQSPDFQSVTPKEKVTITCRASQSISDYLHWYQQKPDQSPKLLIKYASQSISGVPSRFSGSGSGTDFTLTINSLEAEDAATYYCQNGHSFPWTFGQGTKVEIKR
[reply] 233000
